FYI, the data here is from PubChem BioAssay.

Reported composite z-score values for a set of compounds
measurement.description: probe aInhba binding on compound microarray – biochemical, small-molecule microarray, 635/667 nm fluorescence, primary screen (AID 1148);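 further: score merges 667nm spot fluorescence with signal-to-noise for antibody binding to printed compounds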
test.context: higher = more signal
I'd appreciate a reply containing only the number, no unit.

Worked examples, 3 compounds total:
> print(dat)
                                   compound    recorded.metric  observed.value
1  CN(C)CCCC[C@@H]1NC(=O)[C@H]2C[C@@H](C(=O)NCCCCCNC(=O)CS)[C@@H](c3ccc(O)cc3)N2C1=O  composite z-score          -0.208
2  [N-]=[N+]=NCc1ccccc1[C@@H]1OC(c2ccc(OCCCO)cc2)=N[C@]1(Cc1ccccc1N=[N+]=[N-])C(N)=O  composite z-score            0.32
3  COCCCNC(=O)[C@]1(Cc2ccccc2N=[N+]=[N-])N=C(c2ccc(OCCCO)cc2)O[C@@H]1c1ccccc1CN=[N+]=[N-]  composite z-score           0.442

Ask | Note composite z-score for the compound shown: O=C1OCC=C[C@H]2OC34C=CCN(c5ccc6ccccc6c5)C(=O)[C@H]3N(CCO)C(=O)[C@@H]4[C@@H]12 (some centres undefined)
Reply | -0.0427
